Biological target: pERK1/2 (Thr202/Tyr204), NCI-1H358 (KRAS G12C) (Homo sapiens, UniProt P01116, G12C)
Construct: pERK1/2 HTRF read-out
Sequence (P01116 1-188 isoform P01116-2 G12C): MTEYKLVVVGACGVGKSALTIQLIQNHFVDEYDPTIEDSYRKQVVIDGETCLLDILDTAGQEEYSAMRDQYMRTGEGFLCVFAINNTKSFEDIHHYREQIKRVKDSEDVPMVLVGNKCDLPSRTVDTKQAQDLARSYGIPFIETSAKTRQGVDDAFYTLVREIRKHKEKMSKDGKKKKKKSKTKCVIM
Test: Assay of intracellular pERK1/2 (Thr202/Tyr204) phosphorylation in NCI-H358 cells (KRAS G12C)
Format: cell-based
Conditions: pERK1/2, 2 days, read-out: NCI-H358 (KRAS G12C) IC50
pIC50: −log10 of the molar value.
quantity: pIC50

The following molecules have reported results that may help.
{"molecule": "[2H]C1([2H])Oc2nc(-c3cc(N)c(F)c(Cl)c3C(F)(F)F)c(F)c3nc(OC[C@@H]4C[C@@H](F)CN4C)nc(c23)N(C(C)c2cccnc2N)C1([2H])[2H] (single isomer, unassigned) [Compound 208]", "obs.value": 9.40}
{"molecule": "CC(c1cccnc1N)N1CCOc2nc(-c3cc(O)cc4ccc(F)c(F)c34)c(F)c3nc(OC[C@@H]4CC(F)(F)CN4C)nc1c23 (stereo partly drawn) [Compound 46]", "obs.value": 8.40}
{"molecule": "[2H]C1([2H])CN(C(C)c2cccnc2N)c2nc(OC[C@@]34CCCN3C[C@H](F)C4)nc3c(F)c(-c4cc(N)c(F)c(C)c4C(F)(F)F)nc(c23)O1 (single isomer, unassigned) [Compound 183]", "obs.value": 10.00}
{"molecule": "Cc1c(F)c(N)cc(-c2nc3c4c(nc(OC[C@@]56CCCN5C[C@H](F)C6)nc4c2F)N(C(C)c2ccc[n+]([O-])c2N)CCO3)c1C(F)(F)F (stereo partly drawn)", "obs.value": 7.37}
{"molecule": "Cc1cc(N)cc(-c2nc3c4c(nc(OC[C@]56CCCN5[C@@H](CO)CC6)nc4c2F)N([C@H](C)c2cccnc2N)CCO3)c1C(F)(F)F (single isomer, unassigned)", "obs.value": 7.03}
{"molecule": "C#Cc1c(F)ccc2cc(O)cc(-c3nc4c5c(nc(OC[C@@]67CCCN6C[C@H](F)C7)nc5c3F)N(C(C)c3cccnc3N)[C@@H](C)CO4)c12 (single isomer, unassigned) [Compound 274]", "obs.value": 8.30}
{"molecule": "CC(c1cccnc1N)N1c2nc(OC[C@@]34CCCN3C[C@H](F)C4)nc3c(F)c(-c4c5c(cc6[nH]ncc46)CCC5=O)nc(c23)OC[C@@H]1C (single isomer, unassigned)", "obs.value": 7.85}
{"molecule": "CC(c1cccnc1N)N1CCOc2nc(-c3cc(O)cc(Cl)c3C3CC3)c(F)c3nc(OC[C@@H]4COCCN4C)nc1c23 (stereo partly drawn)", "obs.value": 7.51}
{"molecule": "CC(c1cccnc1N)N1CCOc2nc(-c3ccc(F)c4sc(N)nc34)c(F)c3nc(OC[C@@H]4CCN4CC(F)F)nc1c23 (stereo partly drawn)", "obs.value": 7.82}
{"molecule": "Cc1cc(N)cc(-c2nc3c4c(nc(OC[C@@H]5C[C@@H](F)CN5C)nc4c2F)N(C(C)c2cccnc2N)[C@@H](C)CO3)c1C(F)(F)F (single isomer, unassigned) [Compound 283]", "obs.value": 7.26}

a: Cc1cc2[nH]nc(C)c2c(-c2nc3c4c(nc(OC[C@@]56CCCN5C[C@H](F)C6)nc4c2F)N(C(C)c2cccnc2N)[C@@H](C)CO3)c1C(F)(F)F (stereo partly drawn) [Compound 377]
b: [2H]C1([2H])CC[C@@]2(COc3nc4c5c(nc(-c6cc(N)c(F)c(C)c6C(F)(F)F)c(F)c5n3)OCCN4C(C)c3cccnc3N)C[C@@]([2H])(F)CN12 (stereo partly drawn)
c: Cc1c(F)c(N)cc(-c2nc3c4c(nc(OC[C@@H]5CCCN5C)nc4c2F)N(C(C)c2cccnc2N)CCO3)c1C(F)(F)F (single isomer, unassigned) [Compound 86]
d: C[C@H](c1cccnc1N)N1CCOc2nc(-c3c(C(F)(F)F)ccc4[nH]ncc34)c(F)c3nc(OC[C@@]45CCCN4C[C@H](F)C5)nc1c23 (single isomer, unassigned)
Request: Arrange items by their pIC50 values in increasing order. List each label, following the requested order.
Result: d, c, a, b
(d: 6.05, c: 7.54, a: 8.70, b: 9.70)

1: Cc1c(F)c(N)cc(-c2nc3c4c(nc(OC[C@]56CCCN5C[C@H](F)C6)nc4c2F)N(C(C)c2cccnc2N)CCO3)c1C(F)(F)F (stereo partly drawn)
2: CC(c1cccnc1N)N1CCOc2nc(-c3cc(O)cc4ccc(F)c(F)c34)c(F)c3nc(OC[C@@H]4CC(F)(F)CN4C)nc1c23 (single isomer, unassigned) [Compound 51]
Request: Among 1 and 2 , whose measured pIC50 is the smaller figure? Lab note: record the label of whichever item you select.
Result: 2
